Molecular target: Mineralocorticoid receptor (Homo sapiens, UniProt P08235)
Sequence (P08235 whole entry): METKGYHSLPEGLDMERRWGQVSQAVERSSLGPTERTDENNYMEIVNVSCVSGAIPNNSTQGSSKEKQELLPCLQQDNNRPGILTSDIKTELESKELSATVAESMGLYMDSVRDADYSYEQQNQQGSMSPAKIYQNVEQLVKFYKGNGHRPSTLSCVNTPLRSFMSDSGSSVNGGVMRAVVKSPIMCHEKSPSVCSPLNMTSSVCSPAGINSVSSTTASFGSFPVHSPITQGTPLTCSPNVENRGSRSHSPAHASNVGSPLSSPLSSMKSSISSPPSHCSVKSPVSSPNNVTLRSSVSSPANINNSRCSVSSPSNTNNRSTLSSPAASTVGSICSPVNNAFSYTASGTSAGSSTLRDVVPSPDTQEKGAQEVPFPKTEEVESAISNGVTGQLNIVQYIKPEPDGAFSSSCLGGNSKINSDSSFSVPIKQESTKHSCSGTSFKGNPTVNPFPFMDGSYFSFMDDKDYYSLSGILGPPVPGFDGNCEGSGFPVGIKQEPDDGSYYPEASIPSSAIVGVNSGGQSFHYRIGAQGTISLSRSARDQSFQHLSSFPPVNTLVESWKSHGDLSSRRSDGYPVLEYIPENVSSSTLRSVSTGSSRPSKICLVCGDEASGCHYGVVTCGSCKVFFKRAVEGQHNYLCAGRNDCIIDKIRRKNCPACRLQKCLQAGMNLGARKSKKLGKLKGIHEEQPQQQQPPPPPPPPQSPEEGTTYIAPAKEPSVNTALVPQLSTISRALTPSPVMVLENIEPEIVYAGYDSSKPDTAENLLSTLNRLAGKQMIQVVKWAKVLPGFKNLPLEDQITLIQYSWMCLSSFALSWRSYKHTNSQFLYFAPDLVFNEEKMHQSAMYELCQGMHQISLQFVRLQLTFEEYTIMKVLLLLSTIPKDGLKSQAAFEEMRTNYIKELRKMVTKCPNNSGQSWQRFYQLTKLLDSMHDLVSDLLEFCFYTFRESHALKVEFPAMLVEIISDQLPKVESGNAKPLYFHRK
readout-name: Ki (nM)

The following molecules have reported results that may help.
**Q:** So what does the record say about Ki for `CNC(=O)C[C@H]1COc2cc(C(F)(F)F)ccc2N1C(=O)c1ccc2c(c1)NC(=O)CO2` ?
**A:** 12.6

**Q:** So what does the record say about Ki for `O=C1COc2ccc(C(=O)N3c4cc(CC5CCCCC5)c(F)cc4OC[C@@H]3CCO)cc2N1` ?
**A:** 10

**Q:** So what does the record say about Ki for `O=C1COc2ccc(C(=O)N3c4ccc(F)cc4OC[C@@H]3CCO)cc2N1` ?
**A:** 200

**Q:** So what does the record say about Ki for `NC(=O)C[C@H]1CNc2cc(Cl)ccc2N1C(=O)c1ccc2c(c1)NC(=O)CO2` ?
**A:** 7.94

**Q:** So what does the record say about Ki for `N#CC[C@H]1COc2ccccc2N1C(=O)c1ccc2c(c1)NC(=O)CO2` ?
**A:** 501

a = CC(C)Cc1cc2c(cc1Cl)OC[C@H](CC(N)=O)N2C(=O)c1ccc2c(c1)NC(=O)CO2
b = CNC(=O)C[C@H]1COc2ccc(Cl)cc2N1C(=O)c1ccc2c(c1)NC(=O)CO2
**Q:** Name the one with the greater Ki value, either a or b as given. Your answer should be the label of the entry you select.
**A:** b
(b: 100 nM, a: 0.501 nM)
